Ref: patent US20200369765A1

molecular target: T1, Human Siglec-9 mutant M15 (human, UniProt Q9Y336 18-463); assay: flow cytometry, HEK293T transfectants
T1 construct: Expressed on HEK293T cells; also called Mutant 15
T1 sequence (Q9Y336 other isoform, or with tags, fused parts or gaps mutant): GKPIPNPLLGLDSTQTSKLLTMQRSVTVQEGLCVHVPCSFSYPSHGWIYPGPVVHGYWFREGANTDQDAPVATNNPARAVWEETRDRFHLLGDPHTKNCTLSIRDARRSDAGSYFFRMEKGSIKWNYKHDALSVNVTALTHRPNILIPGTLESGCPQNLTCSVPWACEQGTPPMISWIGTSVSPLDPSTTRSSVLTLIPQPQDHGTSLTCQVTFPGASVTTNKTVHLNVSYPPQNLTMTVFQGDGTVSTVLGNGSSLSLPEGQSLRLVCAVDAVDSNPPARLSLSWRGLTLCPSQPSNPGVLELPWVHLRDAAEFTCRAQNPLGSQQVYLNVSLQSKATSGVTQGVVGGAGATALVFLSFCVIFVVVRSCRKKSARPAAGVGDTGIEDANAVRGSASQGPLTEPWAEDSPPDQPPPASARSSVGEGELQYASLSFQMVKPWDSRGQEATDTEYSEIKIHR
metric: binding result

>>> reported_result("Fab.B (Fab of mAbB) (Fab, V domains shown) VH: QVQLQQPGAELVKPGASVKLSCKASVYTFTSYWMHWVKQRPGQGLEWIGEINPSNGHTNYNEKFKTKAKLTVDKSSSTAYMQLSSLTSEDSAVYFCANGVETYDFDDAMDYWGQGTSVTVSS VL: DIQMTQTTSSLSASLGDRVTISCRASQDINNYLNWYQQKPDGTVKLLIYFTSRLHSGVPSRFSGSGSGTDYSLTISNLEQEDIATYFCQQGDTFPFTFGGGTKLEIK")
"binds"
>>> reported_result("Fab.D (Fab of mAbD) (Fab, V domains shown) VH: QIQLVQSGPELKKPGETVKISCKASGYTFTDYSMHWVKQAPGKGLKWMGWIITETGEPTYADDFRGRFAFSLETSANTAYLQINNLKNEDTATYFCARDFDGYWGQGTTLTVSS VL: DILMTQSPASLSASVGETVTITCRASENIYSYLAWYQQKRGKSPQFLVYNAKTLTEGVPSRFRGSGSGTQFSLKINSLQPEDFGTYYCQHHYGFPWTFGGGTKLEIK")
"binds"
>>> reported_result("mAbA (antibody, human IgG1, V domains shown) VH: QVQLQQPGAELVKPGSPVKLSCKASYFTFTSYWMHWVRQRPGQGLEWIGEINPSNGHTNYNEKFESKATLTVDRSSSTAYMQLSSLTSEDSAVFYCANGVESYDFDDALDYWGQGTSVTVSS VL: DIQMTQTTSSLSASLGDRVTISCRASQDINNYLNWYQQKPDGTIKLLIYYTSRLHSGVPSRFSGSGSGTDYSLTINNLEQEDIATYFCQQGNTLPFTFGGGTKLEIK")
"binds"
